Test system: HCC1569;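 further: growth inhibition of human HCC1569 cells, read out with a cell viability assay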
Assay: cells
Assay type: functional, cell-based, Homo sapiens
Settings: Homo sapiens, HCC1569
Description: SANGER: Inhibition of human HCC1569 cell growth in a cell viability assay.
pIC50: −log10 of the molar value. Structures can show the parent of a compound that is named as a salt.

molecule | pIC50
CO[C@H]1C[C@@H]2CC[C@@H](C)[C@@](O)(O2)C(=O)C(=O)N2CCCC[C@H]2C(=O)O[C@H]([C@H](C)C[C@@H]2CC[C@@H](OC(=O)C(C)(CO)CO)[C@H](OC)C2)CC(=O)[C@H](C)/C=C(\C)[C@@H](O)[C@@H](OC)C(=O)[C@H](C)C[C@H](C)/C=C/C=C/C=C/1C [TEMSIROLIMUS] | < 6.70
O=C(O)c1ccc(-c2c[nH]c3ncc(-c4ccccc4)cc23)cc1C1CCCC1 [GSK-650394] | < 4.80
CC(C)CCN1c2nc(Nc3cc(F)c(O)c(F)c3)ncc2N(C)C(=O)C1C (configuration not stated) | < 5.30
Cc1cc([N+](=O)[O-])ccc1NS(=O)(=O)c1cc(Cl)ccc1Cl | 5.46
Oc1ccc2ccccc2c1SSc1c(O)ccc2ccccc12 | < 4.49
COC1=CC(c2cc3ccccc3[nH]2)=N/C1=C\c1[nH]c(C)cc1C [OBATOCLAX MESYLATE] | 7.75
CC1(C)CNc2cc(NC(=O)c3cccnc3NCc3ccncc3)ccc21 [MOTESANIB] | < 5.70

====

Below, each entry is listed alongside its reported IC50.
Test system: A498
Assay: cells
Type: functional, cell-based, Homo sapiens
Conditions: Homo sapiens, A498
Description: SANGER: Inhibition of human A498 cell growth in a cell viability assay.

molecule | IC50
Nc1ccn([C@@H]2O[C@H](CO)[C@@H](O)C2(F)F)c(=O)n1 [GEMCITABINE] | > 1.02 µM
COc1cccc2c1C(=O)c1c(O)c3c(c(O)c1C2=O)C[C@@](O)(C(=O)CO)C[C@@H]3O[C@H]1C[C@H](N)[C@H](O)[C@H](C)O1 [DOXORUBICIN] | > 1.02 µM
Oc1ccc2ccccc2c1SSc1c(O)ccc2ccccc12 | > 32 µM
CCC/C=C/C=C/C(=O)O[C@H]1/C(=C/C(=O)OC)C[C@H]2C[C@H]([C@@H](C)O)OC(=O)C[C@H](O)C[C@@H]3C[C@H](OC(C)=O)C(C)(C)[C@](O)(C[C@@H]4C/C(=C/C(=O)OC)C[C@H](/C=C/C(C)(C)[C@]1(O)O2)O4)O3 [BRYOSTATIN 1] | > 0.008 µM
Cc1cn(-c2cc(NC(=O)c3ccc(C)c(Nc4nccc(-c5cccnc5)n4)c3)cc(C(F)(F)F)c2)cn1 [NILOTINIB] | > 2 µM
Cc1cc([N+](=O)[O-])ccc1NS(=O)(=O)c1cc(Cl)ccc1Cl | > 32 µM

====

Each item that follows carries a reported IC50.
System: COLO-800
Experiment: cells
Format: functional, cell-based, Homo sapiens
Settings: Homo sapiens, COLO-800
Description: SANGER: Inhibition of human COLO-800 cell growth in a cell viability assay.
metric name: IC50

molecule | val
Nc1cccc2c1CN(C1CCC(=O)NC1=O)C2=O (stereo not drawn) [LENALIDOMIDE] | > 5 µM
COc1cc2ncn(-c3cc(OCc4ccccc4C(F)(F)F)c(C(N)=O)s3)c2cc1OC [GW843682X] | > 0.256 µM
N[C@@H](CSC(c1ccccc1)(c1ccccc1)c1ccccc1)C(=O)O | > 5.12 µM
Oc1ccc2ccccc2c1SSc1c(O)ccc2ccccc12 | > 32 µM
C=C(c1ccc(C(=O)O)cc1)c1cc2c(cc1C)C(C)(C)CCC2(C)C | > 8 µM
CC(=O)O[C@H]1C(=O)[C@@]2(C)[C@H]([C@H](OC(=O)c3ccccc3)[C@]3(O)C[C@H](OC(=O)[C@H](O)[C@@H](NC(=O)c4ccccc4)c4ccccc4)C(C)=C1C3(C)C)[C@]1(OC(C)=O)CO[C@@H]1C[C@@H]2O | > 0.102 µM
CC(C)CCN1c2nc(Nc3cc(F)c(O)c(F)c3)ncc2N(C)C(=O)C1C (stereo not drawn) | 2.54 µM
Cc1ccc(-c2c(C(=O)CCl)n(CCCO)c3ncnc(N)c23)cc1 | > 4 µM
